# Test system: SK-MEL-2 melanoma
# assayProcedure: NCI tumour cell line growth inhibition, 48 h
quantityMeasured: TGI

Lookup result for CC1(O)C2(c3ccccc3)CCC[N+]1(C)CC2 (stereo not drawn) ; measured TGI: > 100 µM

Lookup result for O=C(O)CN1C(=O)CN=C(c2ccccn2)c2cc(Cl)ccc21 ; measured TGI: > 100 µM

Lookup result for O=c1cc(-c2ccccc2)oc2c1ccc1ccccc12 ; measured TGI: > 100 µM

###

# Test system: MDA-MB-435
# assayProcedure: NCI tumour cell line growth inhibition, 48 h
quantityMeasured: TGI

Lookup result for Cc1ccc(N=C2OP(=O)(Nc3ccc(C)cc3)Oc3ccccc32)cc1 (stereo unspecified) ; measured TGI: > 100 µM

Lookup result for COC(=O)[C@@H]1C[C@]2(Br)c3ccccc3N(S(=O)(=O)c3ccccc3)[C@@H]2N1C(=O)OC ; measured TGI: > 100 µM

Lookup result for C/C=C\C(CC(=O)NCCC1CN(C(=O)OCc2ccccc2)c2ccccc21)CC(=O)OC (stereo unspecified) ; measured TGI: > 100 µM

Lookup result for NNc1nc2ccccc2o1 ; measured TGI: > 100 µM

Lookup result for COc1ccc(C(=O)c2nc3ccccc3nc2N2CCN(c3ccccc3)CC2)cc1OC ; measured TGI: > 100 µM

Lookup result for Cn1c2ccccc2c2c3c(c4c5ccccc5n(C5OC(CO)C(O)C(O)C5O)c4c21)C(=O)OC3=O (stereo unspecified) ; measured TGI: > 100 µM

Lookup result for O=C(Nc1ccccc1)c1cc(S(=O)(=O)N2CCNC2=O)c(S)cc1Cl ; measured TGI: > 100 µM

Lookup result for COc1ccc2c(c1)C(=O)c1c-2c(N2CCN(C(=O)CCNCCNCCN)CC2)nc2ccccc12 ; measured TGI: 30 µM

Lookup result for CCOC(=O)[C@@]1(C(C)=O)CC(C)=C(C)C[S@]1=O ; measured TGI: > 100 µM

Lookup result for N#CC1(C#N)[C@@H]2CCC=C(Sc3ccccc3)[C@@H]21 ; measured TGI: 26.8 µM

Lookup result for Fc1ccc(-c2ncn(CCCN3CCOCC3)c2-c2ccncc2)cc1 ; measured TGI: > 25 µM

Lookup result for COc1ccc(/C=C2/SC(=Nc3ccccc3)N(NC(=O)Cc3ccccc3)C2=O)c(OC)c1 ; measured TGI: > 100 µM

Lookup result for COC(=O)C1=C(C(=O)ON)[C@@H]2C=C[C@@]1([C@@H](Cc1ccccc1)Nc1ccccc1)O2 ; measured TGI: 16.5 µM

Lookup result for CCOC(=O)C(NC(=O)c1cccc(Cl)c1)(Nc1ccc(S(=O)(=O)Nc2cc(C)nc(C)n2)cc1)C(F)(F)F (stereo unspecified) ; measured TGI: > 100 µM

Lookup result for O=c1oc2ccc(Cl)cc2c(=O)n1-c1ccc(F)cc1F ; measured TGI: 7.73 µM

Lookup result for S=C1SCN(Cc2ccccc2)CN1Cc1ccccc1 ; measured TGI: 7.16 µM

###

Give measured GI50 for each item. Keep answers brief.
# Tested on: COLO 205 colon
# assayProcedure: NCI tumour cell line growth inhibition, 48 h

Lookup result for CC(C)=Cc1cccc2[nH]c(O)c(N=Nc3ccc(S(N)(=O)=O)cc3)c12 ; measured GI50: > 9.93 µM

Lookup result for CC(=O)[CH-]C(C)=O.CC(=O)[CH-]C(C)=O.[Cl-].[O]=[V] ; measured GI50: 18.2 µM

Lookup result for COc1cc2c(/C=C3/C(=O)Nc4ccc(O)cc43)c(Cl)n(Cc3cc(OC)c(OC)c(OC)c3)c2cc1C ; measured GI50: 2.61 µM

Lookup result for O=[N+]([O-])c1ccc(N=Nc2c(Cl)cc(O)cc2Cl)cc1 ; measured GI50: 1.82 µM
